- tgt: CYP121 (Mycobacterium tuberculosis, UniProt P9WPP7)
- Sequence (P9WPP7 whole entry): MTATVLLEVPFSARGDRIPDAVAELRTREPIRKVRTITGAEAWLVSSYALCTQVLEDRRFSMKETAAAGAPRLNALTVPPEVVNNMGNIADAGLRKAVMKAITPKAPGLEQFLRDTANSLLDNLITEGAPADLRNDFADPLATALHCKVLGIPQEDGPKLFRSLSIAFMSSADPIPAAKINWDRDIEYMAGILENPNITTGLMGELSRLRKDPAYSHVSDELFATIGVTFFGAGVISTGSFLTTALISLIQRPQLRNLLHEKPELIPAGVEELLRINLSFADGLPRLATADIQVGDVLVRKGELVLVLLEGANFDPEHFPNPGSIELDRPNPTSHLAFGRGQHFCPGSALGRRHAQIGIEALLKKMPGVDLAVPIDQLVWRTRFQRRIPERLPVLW
- Assay type: binding
- assay conditions: Gibbs free energy of binding to CYP121 divided by number of heavy atoms (ΔG/HA)
# if value of LE (ligand efficiency) reaches 0.2, tag satisfied; if it stays below, tag not satisfied

- compound: "Oc1ccc(-c2n[nH]c(NCc3ccc4[nH]ccc4c3)c2-c2ccc(O)cc2)cc1 [26e]"
  class label: "not satisfied"
- compound: "COc1ccc(-c2cn[nH]c2N)cc1-c1cccc(N)c1 [19c]"
  class label: "satisfied"
- compound: "COc1ccc(-c2n[nH]c(N)c2-c2cccc(-c3cccc(N)c3)c2)cc1 [24a]"
  class label: "satisfied"
- compound: "NC(=O)c1cc(Cl)ccc1N"
  class label: "satisfied"
- compound: "Nc1[nH]nc(-c2cccc(F)c2)c1-c1ccc(O)cc1 [14c]"
  class label: "satisfied"
- compound: "Nc1[nH]nc(-c2cccc(O)c2)c1-c1ccc(O)cc1 [14b]"
  class label: "satisfied"
- compound: "O=C(Nc1[nH]nc(-c2ccc(O)cc2)c1-c1ccc(O)cc1)c1ccccc1 [29a]"
  class label: "not satisfied"
- compound: "Nc1[nH]nc(-c2ccc(O)cc2O)c1-c1ccc(O)cc1 [14d]"
  class label: "satisfied"
- compound: "Oc1ccc(Nc2cc(-c3ccc(O)cc3)n[nH]2)cc1"
  class label: "satisfied"
- compound: "Oc1ccc(-c2n[nH]c(NCc3ccsc3)c2-c2ccc(O)cc2)cc1 [26c]"
  class label: "satisfied"

Consider the record given below.
**Query** Evaluate Nc1cc(-c2ccc(O)cc2)n[nH]1 : LE (ligand efficiency) at minimum 0.2?
**Result** satisfied

Hello, the source for this data is paper PMC4835159, in case you need it.
